Source listed as patent US20230348614A1.

system_name: T1, Recombinant soluble human CD138 extracellular domain (analyte in SPR) (human, UniProt P18827 23-254)
T1 construct: extracellular domain; also called recombinant CD138 (the antigen)
T1 sequence (looked up): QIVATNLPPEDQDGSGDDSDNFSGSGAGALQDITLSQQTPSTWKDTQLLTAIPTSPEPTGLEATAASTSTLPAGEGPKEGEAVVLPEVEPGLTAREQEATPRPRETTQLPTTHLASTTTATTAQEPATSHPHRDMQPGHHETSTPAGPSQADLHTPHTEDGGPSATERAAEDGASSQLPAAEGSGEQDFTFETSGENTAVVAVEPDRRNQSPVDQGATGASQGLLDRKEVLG
run_description: SPR (Carterra LSA): antibody captured by anti-human IgG, CD138 as analyte, pH 6.0, 1:1 fit; pH 6.0, SPR
recorded_metric: koff (s⁻¹)
Return type: number; implicit unit s⁻¹.

Recorded koff, per entry:
binder: Antibody 29-0 (antibody, V domains shown, also called mAb 29-0) VH: EVQLVQSGAEVKKPGASVKVSCKASGYSFSSYYMHWVRQAPGQGLEWMGTIYPGASTTNYNQKFQGRVTMTVDTSTRTAYMELSSLRSEDTAVYYCADFVYWGQGTTVTVSS VL: DIVMTQTPLSLSVTPGQPASISCKSSKSLLYKDGKTYLNWFLQKPGQSPQLLIYVVSTRASGVPDRFSGSGSGTDFTLKISRVEAEDVGVYYCQQLVEYPYTFGQGTKLEIK
recorded_metric: koff
unit_tag: s⁻¹
observed_value: 0.0042
--
binder: Antibody Ab28 (antibody, V domains shown, also called Mab 28) VH: EVQLVQSGAEVKKPGASVKVSCKASGYSFSSYYMHWVRQAPGQGLEWMGTIYPGDSTTNYNQKFQGRVTMTVDTSTRTAYMELSSLRSEDTAVYYCADFVYWGQGTTVTVSS VL: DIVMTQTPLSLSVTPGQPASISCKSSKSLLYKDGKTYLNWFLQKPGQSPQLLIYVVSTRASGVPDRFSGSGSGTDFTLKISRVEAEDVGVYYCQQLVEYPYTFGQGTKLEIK
recorded_metric: koff
unit_tag: s⁻¹
observed_value: 0.0026
--
binder: Antibody Ab17 (antibody, V domains shown, also called mAb 17; Mab 17) VH: EVQLVQSGAEVKKPGASVKVSCKASGYSFSSYYMHWVRQAPGQGLEWMGTIHPSDSTTNYNQKFQGRVTMTVDTSTRTAYMELSSLRSEDTAVYYCADFVYWGQGTTVTVSS VL: DIVMTQTPLSLSVTPGQPASISCKSSKSLLYKDGHTYLNWFLQKPGQSPQLLIYVVSTRASGVPDRFSGSGSGTDFTLKISRVEAEDVGVYYCQQLVEYPYTFGQGTKLEIK
recorded_metric: koff
unit_tag: s⁻¹
observed_value: 0.0026

Attention now turns to another entry.
Exercise: Write down koff measured for item Antibody Ab137 (antibody, V domains shown) VH: QVQLVQSGAEVKKPGASVKVSCKASGYSFSSYYMHWVRQAPGQGLEWMGTIHPSDSTTNYNQKFQGRVTMTVDTSTRTAYMELSSLRSEDTAVYYCANFVYWGQGTTVTVSS VL: DIVMTQTPLSLSVTPGQPASISCKSSKSLLYKDGKTYLNWFLQKPGQSPQLLIDVVSTRASGVPDRFSGSGSGTDFTLKISRVEAEDVGVYYCQQLVEYPYTFGQGTKLEIK
Solution: 0.0029
